tested on: MS2 coat protein; assay: apparent KD of MS2 coat protein; designed switch direction (-1 OFF switch, 1 ON switch): -1; higher = weaker reporter binding; conditions: input ligand: FMN 200 uM
assay.metric: apparent KD of MS2 coat protein (nM)
Give the number; nM is assumed, so skip it.

Please list apparent KD of MS2 coat protein recorded for the sequence GACAGGGCAGGAUAUCGAGAUCCGCACAUGAGGAUCACCCAUGUUCGGUCGAAAGACCGACGAGAAGGGCCGUGUC [Omei Ex5 E5] (Eterna round: R97, puzzle: Exclusion 5)
651

Dear colleague, please send me the reported apparent KD of MS2 coat protein for GAUCGACAUGAGGAUCACCCAUGUCAGGAUAUCGUCACUGGAGCCUCGGCUCCAGUGACGAGAAGGGACAUAAU [E1/13-A2] (Eterna round: R97, puzzle: Exclusion 1) when you can.
46.8

Provide measured apparent KD of MS2 coat protein value, entry: GCUUGUGGGCAAGGAUAUCCUACGCUGUUCUGGUUCGUGUCUGUCACAUGAGGAUCACCCAUGUGGGAGAAGGUGCCUUUGGUG [Design 63] (Eterna round: R96, puzzle: Exclusion NG 2)
13.7

Please indicate apparent KD of MS2 coat protein recorded for CAAUAUUAUCGAGGAUAUCCUAUUGUAUUUCAGGGAGAAGGCGGACUCAACAUGAGGAUCACCCAUGUAAGACGGGUACUAGAU [Ex NG1 #19] (Eterna round: R96, puzzle: Exclusion NG 1)
92.2

Please list apparent KD of MS2 coat protein recorded for the sequence AUGCUCCGUGUAGGAUAUCGCCGUACUAUUCGGCGAGAAGGACAUGAGGAUCACCCAUGUAUGUUAUUAUCACGUGUGGCGCGC [Design 48] (Eterna round: R96, puzzle: Exclusion NG 1)
57
